Cited source for all entries: PubChem BioAssay AID1259407

# System: CCRIS mutagenicity, Ames/micronucleus/aberration tests
# testSummary: CCRIS mutagenicity studies
# conditionSet: Test System: AMES SALMONELLA TYPHIMURIUM; Strain/Indicator: TA1535; Metabolic Activation: NONE; Method: STANDARD PLATE
Activity calls are given as the source filed them. No rule for the calls is given here.
// allowed return values: active, inactive

(Q) Short answer needed: outcome of this test for C/C=C/C=C/C=O ?
(A) inactive

----------
# System: CCRIS mutagenicity, Ames/micronucleus/aberration tests
# testSummary: CCRIS mutagenicity studies
# conditionSet: Test System: E. COLI; Strain/Indicator: WP2 (HCR); Metabolic Activation: NONE; Method: STANDARD PLATE
Calls of active or inactive are those of the source. The rule behind the calls is not given here.
// allowed return values: active, inactive

* O=C(CCBr)N1CCN(C(=O)CCBr)CC1 | active
* CC1(C)S[C@@H]2[C@H](NC(=O)Cc3ccccc3)C(=O)N2[C@H]1C(=O)O | inactive
* OC[C@H]1O[C@@H](n2cnc3c(=S)nc[nH]c32)[C@H](O)[C@@H]1O | inactive
* Cc1ncc(CNC(=O)N(CCCl)N=O)c(N)n1 | active

Now look at this one.
(Q) Short answer needed: outcome of this test for S=c1nc[nH]c2nc[nH]c12 ?
(A) inactive

----------
# Tested on: CCRIS mutagenicity, Ames/micronucleus/aberration tests
# testSummary: CCRIS mutagenicity studies
# conditionSet: Test System: E. coli; Strain/Indicator: WP2uvrA/pKM101; Metabolic Activation: None; Method: Preincubation
Calls of active or inactive are those of the source. No rule for the calls is given here.
// allowed return values: 1 (yes) (active), 0 (no) (inactive)

• CC(=O)OCC(COC(C)=O)OC(C)=O = 0 (no)

Now look at this one.
(Q) Short answer needed: outcome of this test for O=C(Cl)c1ccc(Cl)cc1Cl ?
(A) 0 (no)

----------
# Test system: CCRIS mutagenicity, Ames/micronucleus/aberration tests
# testSummary: CCRIS mutagenicity studies
# conditionSet: Test System: AMES SALMONELLA TYPHIMURIUM; Strain/Indicator: TA100; Metabolic Activation: RAT, LIVER, S-9, PHENOBARBITAL AND 5,6-BENZOFLAVONE; Method: PREINCUBATION
Calls of active or inactive are those of the source. How the calls were made is not given here.
// allowed return values: active, inactive

# example entries with known answers
* Fc1cccc2c1ccc1cccnc12 | active
* COC(=O)C1=C(C)NC(COC(N)=O)=C(C(=O)OC(C)C)C1c1cccc(Cl)c1Cl (stereo not drawn) | inactive
* CCCOC(C(=O)OC1CCN(C)CC1)(c1ccccc1)c1ccccc1 | inactive
* CC1=CC(=O)c2c(O)cccc2C1=O | active
* Clc1cccc2cccnc12 | active
* c1cnc2c(c1)ccc1cccnc12 | inactive
* COC1=C(OC)C(=O)C(C/C=C(\C)CC/C=C(\C)CC/C=C(\C)CC/C=C(\C)CC/C=C(\C)CC/C=C(\C)CC/C=C(\C)CC/C=C(\C)CC/C=C(\C)CCC=C(C)C)=C(C)C1=O | inactive
* O=C(O)c1ccccc1C(=O)O | inactive

(Q) Short answer needed: outcome of this test for O=C(O)C(Cl)Br (stereo not drawn) ?
(A) active

(Q) Short answer needed: outcome of this test for Clc1cnc2ccccc2c1 ?
(A) inactive

----------
# Test system: CCRIS mutagenicity, Ames/micronucleus/aberration tests
# testSummary: CCRIS mutagenicity studies
# conditionSet: Test System: AMES SALMONELLA TYPHIMURIUM; Strain/Indicator: TA98; Metabolic Activation: NONE; Method: STANDARD PLATE
Activity calls are given as the source filed them. No rule for the calls is given here.
outcomeMeasure: mutagenic call

Would you please look over these solved cases?
* CC/C=C\C=C\CCCCCCOC(C)=O | inactive; negative
* O=[N+]([O-])c1c2ccccc2c2ccc3cccc4ccc1c2c43 | inactive; negative
* CS(=O)CCC(=O)N1[C@@H](c2ccccc2O)SC[C@H]1C(=O)O (some centres not stated) | inactive; negative
* CC/C=C\C/C=C\C/C=C\CCCCCCCC(=O)O | inactive; negative
* O=C1CCC(N2C(=O)c3ccccc3C2=O)C(=O)N1 (configuration not stated) | inactive; negative

Give mutagenic call for each of the items listed below.
1. CC(C)=CC1C(C(=O)O)C1(C)C (configuration not stated)
2. O[C@@H]1C=Cc2ccc3c(ccc4ccccc43)c2[C@H]1O

(A)
inactive; negative
inactive; negative

Give mutagenic call for each of the items listed below.
1. O=[N+]([O-])c1cc2c3c(ccc4cccc(c43)CC2)c1
2. c1ccc2c(c1)ncc1cnc3ccccc3c12

(A)
["active; positive", "inactive; negative"]

Give mutagenic call for each of the items listed below.
1. O=[N+]([O-])C1=Cc2c3ccc4ccccc4c3cc3cccc1c23
2. CC1=CC(=O)c2c(O)cccc2C1=O
3. COC1=CC(=O)c2c(nc(C)c3c2[nH]c2ccncc23)C1=O

(A)
1. active; positive
2. inactive; negative
3. active; positive

----------
# Tested on: CCRIS mutagenicity, Ames/micronucleus/aberration tests
# testSummary: CCRIS mutagenicity studies
# conditionSet: Test System: AMES SALMONELLA TYPHIMURIUM; Strain/Indicator: TA1535; Metabolic Activation: NONE; Method: STANDARD PLATE
Calls of active or inactive are those of the source. No rule for the calls is given here.
outcomeMeasure: mutagenic call

- CC1=CC(=O)c2c(O)cccc2C1=O: inactive; negative
- Nc1ccc(Cl)c(N)c1: inactive; negative
- CCCCC(CC)COC(=O)c1ccc(N(C)N=O)cc1 (stereo not drawn): inactive; negative

----------
# Tested on: CCRIS mutagenicity, Ames/micronucleus/aberration tests
# testSummary: CCRIS mutagenicity studies
# conditionSet: Test System: AMES SALMONELLA TYPHIMURIUM; Strain/Indicator: TA100; Metabolic Activation: HAMSTER, LIVER, S-9, AROCLOR 1254; Method: STANDARD PLATE
Calls of active or inactive are those of the source. No rule for the calls is given here.
// allowed return values: yes for active, no for inactive

• O=c1[nH]cnc2c1ncn2[C@H]1CC[C@@H](CO)O1 = no
• Cc1cc(N=Nc2ccccc2C)ccc1N = yes
• N[C@@H](CS)C(=O)O = yes

(Q) Short answer needed: outcome of this test for C=CC(=O)OCCOC(=O)C=C ?
(A) no

(Q) Short answer needed: outcome of this test for C=C(C)C(C)=O ?
(A) no

(Q) Short answer needed: outcome of this test for CCCCC(CC)COC(=O)c1ccc(N(C)N=O)cc1 (stereo not drawn) ?
(A) no

(Q) Short answer needed: outcome of this test for CN(C)c1ccc(C(=O)c2ccc(N(C)C)cc2)cc1 ?
(A) no

(Q) Short answer needed: outcome of this test for Nc1ccc(Cl)cc1 ?
(A) no

(Q) Short answer needed: outcome of this test for O=C1C(=O)c2cccc3cccc1c23 ?
(A) yes

(Q) Short answer needed: outcome of this test for CC/C=C\C/C=C\C/C=C\CCCCCCCC(=O)O ?
(A) no

(Q) Short answer needed: outcome of this test for Nc1ccc(Cl)c(N)c1 ?
(A) yes

(Q) Short answer needed: outcome of this test for Nc1ncn([C@@H]2O[C@H](CO)[C@@H](O)[C@@H]2O)c(=O)n1 ?
(A) no

(Q) Short answer needed: outcome of this test for CN(C)c1ccc(N=Nc2cccc3ccccc23)cc1 ?
(A) yes

(Q) Short answer needed: outcome of this test for C=C1CC/C=C(/C)CC[C@@H]2[C@@H]1CC2(C)C ?
(A) no

----------
# System: CCRIS mutagenicity, Ames/micronucleus/aberration tests
# testSummary: CCRIS mutagenicity studies
# conditionSet: Test System: AMES SALMONELLA TYPHIMURIUM; Strain/Indicator: TA100; Metabolic Activation: RAT LIVER S-9, PHENOBARBITAL AND BETA-NAPHTHOFLAVONE; Method: PREINCUBATION
Calls of active or inactive are those of the source. How the calls were made is not given here.
// allowed return values: TRUE (active), FALSE (inactive)

* CCCCC(CC)CO (configuration not stated) | FALSE

(Q) Short answer needed: outcome of this test for COC(=O)c1ccc(C(=O)OC)cc1 ?
(A) FALSE

(Q) Short answer needed: outcome of this test for CCOC(=O)CBr ?
(A) FALSE

(Q) Short answer needed: outcome of this test for CC(Br)C(=O)O (configuration not stated) ?
(A) FALSE

(Q) Short answer needed: outcome of this test for C1=CC2C3C=CC(C3)C2C1 (configuration not stated) ?
(A) FALSE

(Q) Short answer needed: outcome of this test for NCCCN1CCN(CCCN)CC1 ?
(A) FALSE

(Q) Short answer needed: outcome of this test for ClCc1ccc(Cl)cc1 ?
(A) FALSE

(Q) Short answer needed: outcome of this test for COc1ccccc1[N+](=O)[O-] ?
(A) TRUE

(Q) Short answer needed: outcome of this test for C=C1CC(=O)O1 ?
(A) FALSE

(Q) Short answer needed: outcome of this test for Nc1ccc(NC(=O)c2ccc(N)cc2)cc1 ?
(A) FALSE

(Q) Short answer needed: outcome of this test for COc1ccc(N)cc1 ?
(A) FALSE
